assay: Tissue distribution after single oral administration in mice; assay type: in vivo, ICR mice; conditions: male, ICR, mouse, single oral 1 mg/kg, plasma, read-out: AUC24 h
Outcome measure: AUC(0-t) (ng·h/mL)
Supply the numeric figure in ng·h/mL, leaving out any unit text.

Query block: Given the molecule OC[C@H]1O[C@@H](c2cc(Cc3ccc(C4CC4)cc3)c(Cl)c3c2CCO3)[C@H](O)[C@@H](O)[C@@H]1O , what is its reported AUC(0-t)?
Result block: 1360

====

assay: Pharmacokinetics after intravenous injection in rats; assay type: in vivo, Sprague Dawley (SD) rats; conditions: Sprague-Dawley, rat, IV 0.3 mg/kg, plasma
Outcome measure: AUC(0-inf) (ng·h/mL)
Supply the numeric figure in ng·h/mL, leaving out any unit text.

Query block: Given the compound OC[C@H]1O[C@@H](c2cc(Cc3ccc(C4CC4)cc3)c(Cl)c3c2CCO3)[C@H](O)[C@@H](O)[C@@H]1O , what is its reported AUC(0-inf)?
Result block: 850

====

assay: Pharmacokinetics after intravenous injection in mice; format: in vivo, ICR mice; conditions: ICR, mouse, plasma, IV 1 mg/kg, read-out: Vd,ss
Outcome measure: Vd

Query block: Given the compound OC[C@H]1O[C@@H](c2cc(Cc3ccc(C4CC4)cc3)c(Cl)c3c2CCO3)[C@H](O)[C@@H](O)[C@@H]1O , what is its reported Vd?
Result block: 3.1 L/kg

====

assay: Pharmacokinetics after intravenous injection in rats; assay type: in vivo, Sprague Dawley (SD) rats; conditions: Sprague-Dawley, rat, IV 1 mg/kg, plasma
Outcome measure: AUC(0-t) (ng·h/mL)
Supply the numeric figure in ng·h/mL, leaving out any unit text.

Query block: Given the compound OC[C@H]1O[C@@H](c2cc(Cc3ccc(C4CC4)cc3)c(Cl)c3c2CCO3)[C@H](O)[C@@H](O)[C@@H]1O , what is its reported AUC(0-t)?
Result block: 2510

====

test: Tissue distribution after single oral administration in mice; type: in vivo, ICR mice; conditions: male, ICR, mouse, single oral 1 mg/kg, heart, read-out: T1/2 (elimination half-life) (converted)
Outcome measure: half-life (h)
Supply the numeric figure in h, leaving out any unit text.

Query block: Given the compound OC[C@H]1O[C@@H](c2cc(Cc3ccc(C4CC4)cc3)c(Cl)c3c2CCO3)[C@H](O)[C@@H](O)[C@@H]1O , what is its reported half-life?
Result block: 3.6

====

test: Pharmacokinetics after oral administration in rats; type: in vivo, Sprague Dawley (SD) rats; conditions: Sprague-Dawley, rat, PO 3 mg/kg, plasma
Outcome measure: Cmax (ng/mL)
Supply the numeric figure in ng/mL, leaving out any unit text.

Query block: Given the molecule OC[C@H]1O[C@@H](c2cc(Cc3ccc(C4CC4)cc3)c(Cl)c3c2CCO3)[C@H](O)[C@@H](O)[C@@H]1O , what is its reported Cmax?
Result block: 301

====

experiment: Tissue distribution after single oral administration in mice; format: in vivo, ICR mice; settings: male, ICR, mouse, single oral 1 mg/kg, liver, read-out: T1/2 (elimination half-life) (converted)
Outcome measure: half-life (h)
Supply the numeric figure in h, leaving out any unit text.

Query block: Given the compound OC[C@H]1O[C@@H](c2cc(Cc3ccc(C4CC4)cc3)c(Cl)c3c2CCO3)[C@H](O)[C@@H](O)[C@@H]1O [enavogliflozin] , what is its reported half-life?
Result block: 4.4

====

assay: Pharmacokinetics after intravenous injection in rats; format: in vivo, Sprague Dawley (SD) rats; settings: Sprague Dawley, rat, plasma, IV 0.3 mg/kg, read-out: Vd,ss
Outcome measure: Vd (L/kg)
Supply the numeric figure in L/kg, leaving out any unit text.

Query block: Given the compound OC[C@H]1O[C@@H](c2cc(Cc3ccc(C4CC4)cc3)c(Cl)c3c2CCO3)[C@H](O)[C@@H](O)[C@@H]1O [enavogliflozin] , what is its reported Vd?
Result block: 0.9

====

assay: Pharmacokinetics after oral administration in mice; format: in vivo, ICR mice; settings: ICR, mouse, PO 1 mg/kg, plasma
Outcome measure: half-life (h)
Supply the numeric figure in h, leaving out any unit text.

Query block: Given the compound OC[C@H]1O[C@@H](c2cc(Cc3ccc(C4CC4)cc3)c(Cl)c3c2CCO3)[C@H](O)[C@@H](O)[C@@H]1O [enavogliflozin] , what is its reported half-life?
Result block: 3.5

====

assay: Recovery from urine and feces over 72 h in mice; type: in vivo, ICR mice; conditions: ICR, mouse, urine and feces, 1 mg/kg IV, 72 h, read-out: total recovery (feces + urine)
Outcome measure: dose excreted

Query block: Given the compound OC[C@H]1O[C@@H](c2cc(Cc3ccc(C4CC4)cc3)c(Cl)c3c2CCO3)[C@H](O)[C@@H](O)[C@@H]1O , what is its reported dose excreted?
Result block: ~46%
